system: Rattus norvegicus; assay: Tested for topical antiinflammatory activity in the croton oil ear edema assay and was expressed as mean change in ear thickness of rats; assay type: functional
Quick rule for you: Mean change under 0.3 mm gets Yes, anything else gets No.

In [3]: df
Out[3]:
                              line_notation  label
0  CCCNC(=O)[C@H](O)[C@@]1(O)CC[C@H]2[C@@H]3CCC4=CC(=O)C=C[C@]4(C)[C@H]3[C@@H](O)C[C@@]21C     No
1  C[C@]12C=CC(=O)C=C1CC[C@@H]1[C@@H]2[C@@H](O)C[C@@]2(C)[C@H]1CC[C@]2(O)[C@H](O)C(=O)NCc1ccccc1     No

Next item in the queue.
Could you please tell me whether Mean change recorded for C[C@]12C=CC(=O)C=C1CC[C@@H]1[C@@H]2[C@@H](O)C[C@@]2(C)[C@H]1CC[C@]2(O)[C@@H](O)C(=O)NCc1ccccc1 is less than 0.3 mm? Yes

----------
organism: Rattus norvegicus; assay: Compound was evaluated for antiinflammatory activity in granuloma bioassay and measured as body weight gain; type: functional
Outcome measure: Body weight gain (g)
One number for each entry, in g.

Please review the following examples before continuing.
>>> print(df.to_string())
                              line_notation  reading
0  CNC(=O)[C@@H](O)[C@@]1(O)CC[C@H]2[C@@H]3CCC4=CC(=O)C=C[C@]4(C)[C@H]3[C@@H](O)C[C@@]21C       55
1  C[C@]12C=CC(=O)C=C1CC[C@@H]1[C@@H]2[C@@H](O)C[C@@]2(C)[C@H]1CC[C@]2(O)[C@H](O)C(=O)NCc1ccccc1     55.7

Report Body weight gain for CCCNC(=O)[C@@H](O)[C@@]1(O)CC[C@H]2[C@@H]3CCC4=CC(=O)C=C[C@]4(C)[C@H]3[C@@H](O)C[C@@]21C please. 56.7

----------
Provide the reported Plasma corticosterone of each item.
species on record: Rattus norvegicus; assay: Compound was evaluated for antiinflammatory activity in granuloma bioassay and measured as plasma corticosterone weight; format: functional, organism-based

>>> print(df.to_string())
                              line_notation        outcome_measure    reading
0  C[C@]12C=CC(=O)C=C1CC[C@@H]1[C@@H]2[C@@H](O)C[C@@]2(C)[C@H]1CC[C@]2(O)[C@@H](O)C(=O)NCc1ccccc1  Plasma corticosterone  101 ng/mL
1  CCCNC(=O)[C@H](O)[C@@]1(O)CC[C@H]2[C@@H]3CCC4=CC(=O)C=C[C@]4(C)[C@H]3[C@@H](O)C[C@@]21C  Plasma corticosterone  236 ng/mL
2  CCCNC(=O)[C@@H](O)[C@@]1(O)CC[C@H]2[C@@H]3CCC4=CC(=O)C=C[C@]4(C)[C@H]3[C@@H](O)C[C@@]21C  Plasma corticosterone  164 ng/mL
3  C[C@]12C=CC(=O)C=C1CC[C@@H]1[C@@H]2[C@@H](O)C[C@@]2(C)[C@H]1CC[C@]2(O)C(=O)CO  Plasma corticosterone  130 ng/mL
4  CCNC(=O)[C@H](O)[C@@]1(O)CC[C@H]2[C@@H]3CCC4=CC(=O)C=C[C@]4(C)[C@H]3[C@@H](O)C[C@@]21C  Plasma corticosterone  280 ng/mL

Continue with the next compound.
Report Plasma corticosterone for CNC(=O)[C@@H](O)[C@@]1(O)CC[C@H]2[C@@H]3CCC4=CC(=O)C=C[C@]4(C)[C@H]3[C@@H](O)C[C@@]21C please. 291 ng/mL

----------
system: Rattus norvegicus; assay: Tested for topical antiinflammatory activity in the croton oil ear edema assay and was expressed as mean change in ear thickness of rats; assay type: functional
Outcome measure: Mean change

Please review the following examples before continuing.
>>> df
                              line_notation   reading
0  CNC(=O)[C@@H](O)[C@@]1(O)CC[C@H]2[C@@H]3CCC4=CC(=O)C=C[C@]4(C)[C@H]3[C@@H](O)C[C@@]21C  0.349 mm
1  CCCNC(=O)[C@@H](O)[C@@]1(O)CC[C@H]2[C@@H]3CCC4=CC(=O)C=C[C@]4(C)[C@H]3[C@@H](O)C[C@@]21C  0.353 mm

Report Mean change for C[C@]12C=CC(=O)C=C1CC[C@@H]1[C@@H]2[C@@H](O)C[C@@]2(C)[C@H]1CC[C@]2(O)C(=O)CO please. 0.145 mm

----------
Provide the reported Body weight gain of each item.
species: Rattus norvegicus; assay: Compound was evaluated for antiinflammatory activity in granuloma bioassay and measured as body weight gain; format: functional
# number then unit; no other words

Please review the following examples before continuing.
In [3]: df
Out[3]:
                              line_notation  reading
0  CCNC(=O)[C@H](O)[C@@]1(O)CC[C@H]2[C@@H]3CCC4=CC(=O)C=C[C@]4(C)[C@H]3[C@@H](O)C[C@@]21C   45.7 g
1  C[C@]12C=CC(=O)C=C1CC[C@@H]1[C@@H]2[C@@H](O)C[C@@]2(C)[C@H]1CC[C@]2(O)C(=O)CO     55 g
2  CCNC(=O)[C@@H](O)[C@@]1(O)CC[C@H]2[C@@H]3CCC4=CC(=O)C=C[C@]4(C)[C@H]3[C@@H](O)C[C@@]21C   54.7 g
3  CCCNC(=O)[C@H](O)[C@@]1(O)CC[C@H]2[C@@H]3CCC4=CC(=O)C=C[C@]4(C)[C@H]3[C@@H](O)C[C@@]21C   30.2 g
4  CNC(=O)[C@H](O)[C@@]1(O)CC[C@H]2[C@@H]3CCC4=CC(=O)C=C[C@]4(C)[C@H]3[C@@H](O)C[C@@]21C     46 g

Report Body weight gain for C[C@]12C=CC(=O)C=C1CC[C@@H]1[C@@H]2[C@@H](O)C[C@@]2(C)[C@H]1CC[C@]2(O)[C@@H](O)C(=O)NCc1ccccc1 please. 42 g

----------
species on record: Rattus norvegicus; assay: Tested for inhibition of formation of granulation tissue around the cotton pellet untreated with steroid and expressed as net dry weight; type: functional
Quick rule for you: Net dry weight under 60 mg gets 1 (yes), anything else gets 0 (no).

Please review the entries below; each comes with its answer.
                              line_notation    label
0  CCCNC(=O)[C@H](O)[C@@]1(O)CC[C@H]2[C@@H]3CCC4=CC(=O)C=C[C@]4(C)[C@H]3[C@@H](O)C[C@@]21C  1 (yes)
1  C[C@]12C=CC(=O)C=C1CC[C@@H]1[C@@H]2[C@@H](O)C[C@@]2(C)[C@H]1CC[C@]2(O)[C@H](O)C(=O)NCc1ccccc1   0 (no)

Could you please tell me whether Net dry weight recorded for C[C@]12C=CC(=O)C=C1CC[C@@H]1[C@@H]2[C@@H](O)C[C@@]2(C)[C@H]1CC[C@]2(O)[C@@H](O)C(=O)NCc1ccccc1 is less than 60 mg? 1 (yes)

Record: CCCNC(=O)[C@@H](O)[C@@]1(O)CC[C@H]2[C@@H]3CCC4=CC(=O)C=C[C@]4(C)[C@H]3[C@@H](O)C[C@@]21C 1 (yes)

Record: CNC(=O)[C@H](O)[C@@]1(O)CC[C@H]2[C@@H]3CCC4=CC(=O)C=C[C@]4(C)[C@H]3[C@@H](O)C[C@@]21C 1 (yes)

Record: CCNC(=O)[C@@H](O)[C@@]1(O)CC[C@H]2[C@@H]3CCC4=CC(=O)C=C[C@]4(C)[C@H]3[C@@H](O)C[C@@]21C 0 (no)

Record: CNC(=O)[C@@H](O)[C@@]1(O)CC[C@H]2[C@@H]3CCC4=CC(=O)C=C[C@]4(C)[C@H]3[C@@H](O)C[C@@]21C 0 (no)

Record: CCNC(=O)[C@H](O)[C@@]1(O)CC[C@H]2[C@@H]3CCC4=CC(=O)C=C[C@]4(C)[C@H]3[C@@H](O)C[C@@]21C 1 (yes)

----------
system: Rattus norvegicus; assay: Tested for topical antiinflammatory activity in the croton oil ear edema assay and was expressed as mean change in ear thickness of rats; assay type: functional
Outcome measure: Mean change (mm)
One number for each entry, in mm.

Please review the following examples before continuing.
>>> df
                              line_notation  outcome_measure  reading
0  CCNC(=O)[C@@H](O)[C@@]1(O)CC[C@H]2[C@@H]3CCC4=CC(=O)C=C[C@]4(C)[C@H]3[C@@H](O)C[C@@]21C      Mean change    0.305
1  CNC(=O)[C@H](O)[C@@]1(O)CC[C@H]2[C@@H]3CCC4=CC(=O)C=C[C@]4(C)[C@H]3[C@@H](O)C[C@@]21C      Mean change    0.307

Report Mean change for CCNC(=O)[C@H](O)[C@@]1(O)CC[C@H]2[C@@H]3CCC4=CC(=O)C=C[C@]4(C)[C@H]3[C@@H](O)C[C@@]21C please. 0.302
